SYSTEM_NAME: T1, human TNFR1 (recombinant, R&D Systems cat no. 636-R1/CF, biotinylated) (human, UniProt P19438 30-211, limits assumed, biotinylated with EZ-Link NHS-LC-LC-biotin)
T1 construct: it is not tied to the BIAcore reagent; also called p55; hTNFR1
T1 sequence (looked up): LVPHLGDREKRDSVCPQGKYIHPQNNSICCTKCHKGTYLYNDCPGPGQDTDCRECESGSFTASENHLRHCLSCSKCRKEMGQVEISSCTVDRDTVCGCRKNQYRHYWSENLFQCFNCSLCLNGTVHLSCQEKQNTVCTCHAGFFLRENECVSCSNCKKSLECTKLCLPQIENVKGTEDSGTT
ASSAY_METHOD_TEXT: BIAcore T100, biotinylated human TNFR1 on chip
pKd: −log10 of the molar value.
Items are presented alongside their recorded pKd.
ASSAY_ENDPOINT: pKd

DOM1h-574-72 (other, VH dAb; expressed in E. coli, purified on Protein A) VH: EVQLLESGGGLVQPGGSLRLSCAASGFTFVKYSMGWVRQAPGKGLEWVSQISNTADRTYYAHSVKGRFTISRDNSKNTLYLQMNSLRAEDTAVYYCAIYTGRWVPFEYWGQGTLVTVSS | 9.28
DMS0116 (bispecific antibody, anti-TNFR1 dAb / AlbudAb in-line fusion) EVQLLESGGGLVQPGGSLRLSCAASGFTFVKYSMGWVRQAPGKGLEWVSQISNTADRTYYAHSVKGRFTISRDNSKNTLYLQMNSLRAEDTAVYYCAIYTGRWVPFEYWGQGTLVTVSSASTSGPSDIQMTQSPSSLSASVGDRVTITCRASRPIGTMLSWYQQKPGKAPKLLILFGSRLQSGVPSRFSGSGSGTDFTLTISSLQPEDFATYYCAQAGTHPTTFGQGTKVEIKR | 9.85
DMS0112 (bispecific antibody, anti-TNFR1 dAb / AlbudAb in-line fusion) EVQLLESGGGLVQPGGSLRLSCAASGFTFVKYSMGWVRQAPGKGLEWVSQISNTADRTYYAHSVKGRFTISRDNSKNTLYLQMNSLRAEDTAVYYCAIYTGRWVPFEYWGQGTLVTVSSASTDIQMTQSPSSLSASVGDRVTITCRASRPIGTMLSWYQQKPGKAPKLLILFGSRLQSGVPSRFSGSGSGTDFTLTISSLQPEDFATYYCAQAGTHPTTFGQGTKVEIKR | 9.85
